# assay_target: PfLysRS (Plasmodium falciparum)
# Construct: PfLysRS (77–583) was constructed in the vector pET20b, with a C-terminal 6×His tag; 6xHis (C); made in house; host or cells: E. coli BL21 (DE3)
# Sequence (Q8IDJ8 entry or part of it): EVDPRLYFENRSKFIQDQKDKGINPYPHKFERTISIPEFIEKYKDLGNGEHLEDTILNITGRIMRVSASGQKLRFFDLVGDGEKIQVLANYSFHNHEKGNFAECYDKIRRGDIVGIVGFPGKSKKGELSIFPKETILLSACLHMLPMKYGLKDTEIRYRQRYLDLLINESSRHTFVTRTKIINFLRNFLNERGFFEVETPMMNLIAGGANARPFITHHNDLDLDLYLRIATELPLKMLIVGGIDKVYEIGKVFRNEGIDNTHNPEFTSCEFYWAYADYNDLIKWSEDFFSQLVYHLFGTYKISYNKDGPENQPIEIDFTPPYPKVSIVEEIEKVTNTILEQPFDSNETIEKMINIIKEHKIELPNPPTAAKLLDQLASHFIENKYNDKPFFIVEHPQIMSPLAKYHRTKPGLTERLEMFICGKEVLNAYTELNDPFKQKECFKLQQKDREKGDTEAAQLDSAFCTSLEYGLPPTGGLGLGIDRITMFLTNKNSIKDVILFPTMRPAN
# experimental_details: ATP hydrolysis assay (Kinase-Glo) on PfLysRS
# Format: biochemical
# stated_conditions: PfLysRS, source data; read-out: IC50 (best-fit value)
# Procedure: The ATP hydrolysis assays were based on Kinase-Glo luminescent Kit (Promega). The experiment was carried out in Corning 384-well white flat bottom microplates. […] When the reaction reaches the planned time, 10 μL diluted Kinase-Glo reagent (1/50 diluted with a buffer containing 50 mM Tris pH 7.5 and 5% glycerol) was added and incubated for 15 min. Luminescence was measured on the Magellan plate reader (Tecan) and nonlinear regression was performed with Prism (GraphPad).
reported_endpoint: IC50 (nM)

COc1ccc(OC)c(Nc2ncnc(Nc3ccccc3S(=O)(=O)C(C)C)n2)c1; 198

(P) COc1ncccc1Nc1ncnc(Nc2ccccc2S(=O)(=O)C(C)C)n1 [Compound 38a]
(Q) COc1ccccc1Nc1ncnc(Nc2ccccc2S(=O)(=O)C(C)C)n1
Hi! Which is lower in terms of IC50, the first one P or the second one Q ? Answer format: the label of the selected item. P
